Provenance of the data: paper PMC10460844

Examples of compounds with documented HPLC elution follow.
- runDescription: Analytical reversed-phase HPLC elution (hydrophobicity)
- Type: physicochemical
- protocolConditions: Table S1; analytical RP-HPLC, SunFire C18, water/ACN + 0.1% TFA, 5 to 100% B linear over 30 min, 1 mL/min, UV 220 nm; approximate comparison of hydrophobicity
Square brackets hold non-standard residues; d marks the D form. Peptide text beside a SMILES is read from it. Gly(N(CH2)2(3-indolyl)) = O=C(O)CNCCc1c[nH]c2ccccc12; Nspe = C[C@H](NCC(=O)O)c1ccccc1; Nlys = NCCCCNCC(=O)O
Give a bare numeral; the unit % MeCN is implied.

>  <compound>
C[C@@H](c1ccccc1)N(CC(N)=O)C(=O)CN(C(=O)CN(CCCCN)C(=O)CN(C(=O)CN(C(=O)CN(CCCCN)C(=O)CN(C(=O)CN(C(=O)CN(CCCCN)C(=O)CN(C(=O)CN(CCCCN)C(=O)CN(CCCCN)C(=O)CN(CCc1c[nH]c2ccccc12)C(=O)CNCCc1c[nH]c2ccccc12)[C@@H](C)c1ccccc1)[C@@H](C)c1ccccc1)[C@@H](C)c1ccccc1)[C@@H](C)c1ccccc1)[C@@H](C)c1ccccc1)[C@@H](C)c1ccccc1

>  <HPLC elution [% MeCN]>
52.4

$$$$

Kindly consider the entry below.
Req: Could you tell me which HPLC elution is on file for C[C@@H](c1ccccc1)N(CC(=O)N(CCc1c[nH]c2ccccc12)CC(N)=O)C(=O)CN(CCCCN)C(=O)CN(C(=O)CN(C(=O)CN(CCCCN)C(=O)CN(C(=O)CN(C(=O)CN(CCCCN)C(=O)CN(C(=O)CN(C(=O)CNCCCCN)[C@@H](C)c1ccccc1)[C@@H](C)c1ccccc1)[C@@H](C)c1ccccc1)[C@@H](C)c1ccccc1)[C@@H](C)c1ccccc1)[C@@H](C)c1ccccc1 [peptoid 7] (H-[Nlys][Nspe][Nspe][Nlys][Nspe][Nspe][Nlys][Nspe][Nspe][Nlys][Nspe][Gly(N(CH2)2(3-indolyl))]-NH2) ?
Resp: 54.1

---

The reader will find reported HC10 values listed item by item below.
- Tested on: rat erythrocytes
- runDescription: Hemolysis assay
- Format: cell-based
- protocolConditions: pH 7.4
Square brackets hold non-standard residues; d marks the D form. Peptide text beside a SMILES is read from it. Gly(N(CH2)2(3-indolyl)) = O=C(O)CNCCc1c[nH]c2ccccc12; Nspe = C[C@H](NCC(=O)O)c1ccccc1; Nlys = NCCCCNCC(=O)O
Field: numeric (µM). Do not append units.

Take a look at these entries with their results.
>  <compound>
C[C@@H](c1ccccc1)N(CC(N)=O)C(=O)CN(C(=O)CN(CCCCN)C(=O)CN(C(=O)CN(C(=O)CN(CCCCN)C(=O)CN(CCc1c[nH]c2ccccc12)C(=O)CN(CCc1c[nH]c2ccccc12)C(=O)CN(CCCCN)C(=O)CN(C(=O)CN(C(=O)CNCCCCN)[C@@H](C)c1ccccc1)[C@@H](C)c1ccccc1)[C@@H](C)c1ccccc1)[C@@H](C)c1ccccc1)[C@@H](C)c1ccccc1

>  <quantityUnit>
µM

>  <HC10>
20.2

$$$$
>  <compound>
C[C@@H](c1ccccc1)N(CC(N)=O)C(=O)CN(C(=O)CN(CCCCN)C(=O)CN(CCc1c[nH]c2ccccc12)C(=O)CN(CCc1c[nH]c2ccccc12)C(=O)CN(CCCCN)C(=O)CN(CCc1c[nH]c2ccccc12)C(=O)CN(CCc1c[nH]c2ccccc12)C(=O)CN(CCCCN)C(=O)CN(C(=O)CN(C(=O)CNCCCCN)[C@@H](C)c1ccccc1)[C@@H](C)c1ccccc1)[C@@H](C)c1ccccc1

>  <quantityUnit>
µM

>  <HC10>
8.2

$$$$

Req: State its HC10 on rat erythrocytes: C[C@@H](c1ccccc1)N(CC(N)=O)C(=O)CN(C(=O)CN(CCCCN)C(=O)CN(CCc1c[nH]c2ccccc12)C(=O)CN(CCc1c[nH]c2ccccc12)C(=O)CN(CCCCN)C(=O)CN(C(=O)CN(C(=O)CN(CCCCN)C(=O)CN(C(=O)CN(C(=O)CNCCCCN)[C@@H](C)c1ccccc1)[C@@H](C)c1ccccc1)[C@@H](C)c1ccccc1)[C@@H](C)c1ccccc1)[C@@H](C)c1ccccc1
Resp: 29.1

Req: Repeat for the following compound: C[C@@H](c1ccccc1)N(CC(=O)N(CCCCN)CC(=O)N(CC(=O)N(CC(=O)N(CCCCN)CC(=O)N(CC(=O)N(CC(=O)N(CCCCN)CC(=O)N(CC(=O)N(CCc1c[nH]c2ccccc12)CC(N)=O)[C@@H](C)c1ccccc1)[C@@H](C)c1ccccc1)[C@@H](C)c1ccccc1)[C@@H](C)c1ccccc1)[C@@H](C)c1ccccc1)C(=O)CN(CCc1c[nH]c2ccccc12)C(=O)CNCCCCN [peptoid 17] (H-[Nlys][Gly(N(CH2)2(3-indolyl))][Nspe][Nlys][Nspe][Nspe][Nlys][Nspe][Nspe][Nlys][Nspe][Gly(N(CH2)2(3-indolyl))]-NH2)
Resp: 18.0

Req: Would you mind doing C[C@H](NCC(=O)N(CCCCN)CC(=O)N(CC(=O)N(CC(=O)N(CCCCN)CC(=O)N(CC(=O)N(CC(=O)N(CCCCN)CC(=O)N(CC(=O)N(CC(=O)N(CCCCN)CC(=O)N(CC(N)=O)[C@@H](C)c1ccccc1)[C@@H](C)c1ccccc1)[C@@H](C)c1ccccc1)[C@@H](C)c1ccccc1)[C@@H](C)c1ccccc1)[C@@H](C)c1ccccc1)[C@@H](C)c1ccccc1)c1ccccc1 [peptoid 48] (H-[Nspe][Nlys][Nspe][Nspe][Nlys][Nspe][Nspe][Nlys][Nspe][Nspe][Nlys][Nspe]-NH2) as well?
Resp: 25.7
